test details: Stability evaluation of solution formulation (Experimental Example 2)
Format: physicochemical
study conditions: solution formulation, pH5.0, 1 week
Please use Condition met whenever Production rate of Alvocidib is not below 2%, and Condition not met whenever it is.

compound=CCN(C[C@H]1CCCCN1)C(=O)Oc1cc(O)c2c(=O)cc(-c3ccccc3Cl)oc2c1[C@H]1CCN(C)C[C@H]1O class="Condition not met"
compound="CNCCN(C)C(=O)Oc1cc(O)c2c(=O)cc(-c3ccccc3Cl)oc2c1[C@H]1CCN(C)C[C@H]1O [Comparative Example 14, reference compound]" class="Condition met"
compound="CCN(C[C@@H]1CCCCN1)C(=O)Oc1cc(O)c2c(=O)cc(-c3ccccc3Cl)oc2c1[C@H]1CCN(C)C[C@H]1O [Example 1, ditrifluoroacetate]" class="Condition not met"
compound=CCCN(C[C@H]1CCCCN1)C(=O)Oc1cc(O)c2c(=O)cc(-c3ccccc3Cl)oc2c1[C@H]1CCN(C)C[C@H]1O class="Condition not met"
compound="CN1CC[C@H](c2c(OC(=O)N(C)CCN)cc(O)c3c(=O)cc(-c4ccccc4Cl)oc23)[C@H](O)C1 [Comparative Example 13, reference compound]" class="Condition met"
compound=CCCN(C[C@@H]1CCCCN1)C(=O)Oc1cc(O)c2c(=O)cc(-c3ccccc3Cl)oc2c1[C@H]1CCN(C)C[C@H]1O class="Condition not met"

---

test details: Evaluation of conversion rate to active form in buffer solution (Experimental Example 1)
Assay type: physicochemical
study conditions: pH7.4, 3 hr, 37° C., 25 umol/L in buffer solution
Procedure: For Examples 1 to 16 and Comparative Examples 1 to 14, the attrition rate of the test compound and the conversion rate of the test compound to Alvocidib in a buffer solution were calculated by the following method. Examples 1 to 16 and Comparative Examples 1 to 14 were each left in buffer solutions adjusted to pH 5.0, 5.5, 6.0, 6.5, 7.0 and 7.4, respectively, at a concentration of 25 umol/L at 37° C. […]
outcome measure: Residual rate (%)

molecule="CCN(CCC1CCCCN1)C(=O)Oc1cc(O)c2c(=O)cc(-c3ccccc3Cl)oc2c1[C@H]1CCN(C)C[C@H]1O (stereo partly drawn) [Example 16]" outcome_measure="Residual rate" unit_descriptor=% experimental_result=0.0
molecule="CCN(C[C@H]1CCCCN1)C(=O)Oc1cc(O)c2c(=O)cc(-c3ccccc3Cl)oc2c1[C@H]1CCN(C)C[C@H]1O [Example 2]" outcome_measure="Residual rate" unit_descriptor=% experimental_result=1.5
molecule="CN1CC[C@H](c2c(OC(=O)N(CCCC(F)(F)F)CC3CCCCN3)cc(O)c3c(=O)cc(-c4ccccc4Cl)oc23)[C@H](O)C1 (stereo partly drawn) [Example 14]" outcome_measure="Residual rate" unit_descriptor=% experimental_result=0.3

---

Entries annotated with measured Residual rate
test details: Evaluation of conversion rate to active form in buffer solution (Experimental Example 1)
Format: physicochemical
study conditions: pH7.0, 3 hr, 37° C., 25 umol/L in buffer solution
Counter-ions that a name gives are not always drawn.
outcome measure: Residual rate (%)

compound="CN1CC[C@H](c2c(OC(=O)N(CCC(F)(F)F)CC3CCCCN3)cc(O)c3c(=O)cc(-c4ccccc4Cl)oc23)[C@H](O)C1 (stereo partly shown)" outcome_measure="Residual rate" experimental_result=0.0
compound="CCN(CCC1CCCCN1)C(=O)Oc1cc(O)c2c(=O)cc(-c3ccccc3Cl)oc2c1[C@H]1CCN(C)C[C@H]1O (stereo partly shown)" outcome_measure="Residual rate" experimental_result=7.7
compound=CCN(C[C@H]1CCCCN1)C(=O)Oc1cc(O)c2c(=O)cc(-c3ccccc3Cl)oc2c1[C@H]1CCN(C)C[C@H]1O outcome_measure="Residual rate" experimental_result=9.8
compound="CN1CC[C@H](c2c(OC(=O)N(Cc3ccccc3)CC3CCCCN3)cc(O)c3c(=O)cc(-c4ccccc4Cl)oc23)[C@H](O)C1 (stereo partly shown)" outcome_measure="Residual rate" experimental_result=3.9
compound="CCN(C[C@@H]1CCCCN1)C(=O)Oc1cc(O)c2c(=O)cc(-c3ccccc3Cl)oc2c1[C@H]1CCN(C)C[C@H]1O [Example 1, ditrifluoroacetate]" outcome_measure="Residual rate" experimental_result=21.0
compound=CN1CC[C@H](c2c(OC(=O)N(C)C[C@H]3CCCCN3)cc(O)c3c(=O)cc(-c4ccccc4Cl)oc23)[C@H](O)C1 outcome_measure="Residual rate" experimental_result=0.0
compound="CC(C)N(CC1CCCCN1)C(=O)Oc1cc(O)c2c(=O)cc(-c3ccccc3Cl)oc2c1[C@H]1CCN(C)C[C@H]1O (stereo partly shown)" outcome_measure="Residual rate" experimental_result=0.8
compound="CN1CC[C@H](c2c(OC(=O)N(CCF)CC3CCCCN3)cc(O)c3c(=O)cc(-c4ccccc4Cl)oc23)[C@H](O)C1 (stereo partly shown)" outcome_measure="Residual rate" experimental_result=12.4
compound="COCCN(CC1CCCCN1)C(=O)Oc1cc(O)c2c(=O)cc(-c3ccccc3Cl)oc2c1[C@H]1CCN(C)C[C@H]1O (stereo partly shown)" outcome_measure="Residual rate" experimental_result=0.0
compound="CCCN(CC1CCCCN1)C(=O)Oc1cc(O)c2c(=O)cc(-c3ccccc3Cl)oc2c1[C@H]1CCN(C)C[C@H]1O (stereo partly shown)" outcome_measure="Residual rate" experimental_result=16.7
compound=CN1CC[C@H](c2c(OC(=O)N(C)C[C@@H]3CCCCN3)cc(O)c3c(=O)cc(-c4ccccc4Cl)oc23)[C@H](O)C1 outcome_measure="Residual rate" experimental_result=8.0
compound=CCCN(C[C@@H]1CCCCN1)C(=O)Oc1cc(O)c2c(=O)cc(-c3ccccc3Cl)oc2c1[C@H]1CCN(C)C[C@H]1O outcome_measure="Residual rate" experimental_result=15.0
compound="CN1CC[C@H](c2c(OC(=O)N(CCCC(F)(F)F)CC3CCCCN3)cc(O)c3c(=O)cc(-c4ccccc4Cl)oc23)[C@H](O)C1 (stereo partly shown)" outcome_measure="Residual rate" experimental_result=0.4
compound="CCN(CC1CCCCN1)C(=O)Oc1cc(O)c2c(=O)cc(-c3ccccc3Cl)oc2c1[C@H]1CCN(C)C[C@H]1O (stereo partly shown) [Example 7, dihydrochloride]" outcome_measure="Residual rate" experimental_result=29.5
compound=CCCN(C[C@H]1CCCCN1)C(=O)Oc1cc(O)c2c(=O)cc(-c3ccccc3Cl)oc2c1[C@H]1CCN(C)C[C@H]1O outcome_measure="Residual rate" experimental_result=6.8
compound="CCNC(=O)Oc1cc(O)c2c(=O)cc(-c3ccccc3Cl)oc2c1[C@H]1CCN(C)C[C@H]1O [Comparative Example 1, reference compound]" outcome_measure="Residual rate" experimental_result=0.9
